Overview of reported TGI across a group of molecules:
# Tested on: SK-MEL-2 melanoma
# ASSAY METHOD TEXT: NCI tumour cell line growth inhibition, 48 h

Supply measured TGI of `O=C1c2ccccc2-c2c1c1ccccc1c(=O)n2CCO` in your reply. 87.2 µM

# return recorded TGI for input `CNC(=O)OCc1nc(SC(C)C)n(C)c1COC(=O)NC` > 100 µM

# return recorded TGI for entry `COc1ccc(-c2cc(-c3ccc(Nc4nc(Nc5ccc(Cl)cc5)nc(Nc5ccc(Cl)cc5)n4)cc3)nc(N)c2C#N)cc1` 3.2 µM

Name the recorded TGI of the item Cc1ccc(S(=O)(=O)NC(=O)NC(CO)C(=O)O)cc1 (stereo unspecified) in your answer. > 100 µM

Input Cc1ccc2c(c1)NC(c1ccc(C(=O)O)cc1)c1cccn1-2 (stereo unspecified) , output reported TGI. > 100 µM
